// pEC50 lookup, one value per entry
TARGET OR TEST SYSTEM: TLR7 receptor (Homo sapiens)
Sequence (Q9NYK1 27-1049): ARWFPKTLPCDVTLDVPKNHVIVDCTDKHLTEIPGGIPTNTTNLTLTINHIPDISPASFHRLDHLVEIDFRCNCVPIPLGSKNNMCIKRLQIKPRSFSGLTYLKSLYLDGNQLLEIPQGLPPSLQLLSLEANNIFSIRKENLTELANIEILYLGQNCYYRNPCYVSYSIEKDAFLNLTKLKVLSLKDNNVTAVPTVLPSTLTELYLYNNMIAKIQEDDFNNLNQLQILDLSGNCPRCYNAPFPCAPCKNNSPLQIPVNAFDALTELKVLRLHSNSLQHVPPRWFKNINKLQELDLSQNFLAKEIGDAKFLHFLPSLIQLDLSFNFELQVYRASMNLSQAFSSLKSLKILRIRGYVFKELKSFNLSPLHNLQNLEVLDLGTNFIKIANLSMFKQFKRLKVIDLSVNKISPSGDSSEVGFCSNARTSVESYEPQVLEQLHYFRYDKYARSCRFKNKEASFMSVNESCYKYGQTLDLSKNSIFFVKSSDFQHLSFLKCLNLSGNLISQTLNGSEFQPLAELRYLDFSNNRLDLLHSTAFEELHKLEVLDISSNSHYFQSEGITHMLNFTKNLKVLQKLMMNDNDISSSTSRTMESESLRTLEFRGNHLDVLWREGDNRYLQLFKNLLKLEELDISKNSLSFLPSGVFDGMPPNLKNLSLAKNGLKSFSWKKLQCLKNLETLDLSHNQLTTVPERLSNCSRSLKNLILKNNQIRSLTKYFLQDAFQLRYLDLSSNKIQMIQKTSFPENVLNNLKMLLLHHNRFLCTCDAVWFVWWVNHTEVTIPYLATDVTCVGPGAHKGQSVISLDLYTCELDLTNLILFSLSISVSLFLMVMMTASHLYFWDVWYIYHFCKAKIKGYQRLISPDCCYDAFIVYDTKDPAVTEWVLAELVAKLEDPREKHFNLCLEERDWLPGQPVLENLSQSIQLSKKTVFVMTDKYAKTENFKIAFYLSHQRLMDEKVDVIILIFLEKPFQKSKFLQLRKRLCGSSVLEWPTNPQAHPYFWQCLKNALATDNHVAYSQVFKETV
EXPERIMENTAL PROTOCOL: cell-based
In textbook form, pEC50 equals minus log to base ten of the concentration in mol/L.

Known pEC50 results, listed for orientation:
| SMILES REPRESENTATION | QUANTITY | READOUT NUMBER |
| --- | --- | --- |
| CCNC(=O)c1nc(N)c2[nH]c(=O)n(Cc3ccccc3)c2n1 | pEC50 | 7.77 |
| CNC(=O)c1nc(N)c2[nH]c(=O)n(Cc3ccccc3)c2n1 | pEC50 | 7.38 |
| Nc1nc(C(=O)NCC2CC2)nc2c1[nH]c(=O)n2Cc1ccccc1 | pEC50 | 7.52 |

# context switch: different compound, same pEC50
get_value(item= Nc1nc(C(=O)N2CCC2)nc2c1[nH]c(=O)n2Cc1ccccc1 , readout=pEC50) returns 7.14
